Origin of values: ChEMBL document CHEMBL1932921

assay: Neurotoxicity in ip dosed Swiss albino mouse measured after 30 mins by chimney test; type: toxicity, organism-based; details: in vivo
Decide using TD50 at 0.5 h alone. Strictly below 300 mg/kg: class 1. Equal to or above 300 mg/kg: class 0.

[[record]]
molecule = "Cc1ccccc1-n1c(C)nc2c(OCC(=O)NN)cccc2c1=O"
class = "class 1"

[[record]]
molecule = "Cc1ccccc1-n1c(C)nc2ccccc2c1=O"
class = "class 0"

[[record]]
molecule = "CCCC(CCC)C(=O)[O-].[Na+] [VALPROATE SODIUM]"
class = "class 0"

[[record]]
molecule = "CCOC(=O)NNC(=O)COc1cccc2c(=O)n(-c3ccccc3C)c(C)nc12"
class = "class 1"

[[record]]
molecule = "CSC(=S)NNC(=O)COc1cccc2c(=O)n(-c3ccccc3C)c(C)nc12"
class = "class 1"

